All values here come from patent US20250027068.

Exercise: for every item that follows, state its recorded Enzyme Activity Endpoint Assay (purified): Fc.
Target: pooled human IgG (human IgG1, 2, 3 and 4)
Unit ng/µL implied. Number only.

Lookup result for PRT-635 (protein) MQITSVWTKGVTPLTPDQFTNQGEDVIHAPYTPNQGWYDITKAFDGKDNLLCGAATAGNMLHWWFDQNKTEIEAYLSKHPEKQKIIFNNQELFDLKAAIDTKDSQTNSQLFNYFRDKAFPNLSARQLGVMPDLVLDMFINGYYLNVFKTQSTDVNRPYQDKDKRGGIFDAVFTRGDQTTLLTARHDLKNKGLNDISTIIKQELTEGKALALSHTYANVSISHVINLWGADFNAEGNLEAIYVTDSDANASIGMKKYFVGINAHGHVAISAKKIEGENIGAQVLGLFTLSSGKDIWQKLSLEHHHHHH ; measured Enzyme Activity Endpoint Assay (purified): Fc: 0

Lookup result for PRT-625 (protein) MQITSVWTKGVTPLTPEQFRYNNEDVIHAPYLAHQGWYDITKAFDGKDNLLCGAATAGNMLHWWFDQNKTEIEAYLSKHPEKQKIIFNNQELFDLKAAIDTKDSQTNSQLFNYFRDKAFPNLSARQLGVMPDLVLDMFINGYYLNVFKTQSTDVNRPEDDKDKRGGIFDHVFTRGDQSTLLTARHDLKNKGLNDISTIIKQELTEGRALALSHTYANVSISHVINLWGADFNAEGNLEAIYVTDSDANASIGMKKYFVGINAHGHVAISAKKIEGENIGAQVLGLFTLSSGKDIWQKLSLEHHHHHH ; measured Enzyme Activity Endpoint Assay (purified): Fc: 405

Lookup result for PRT-610 (protein) MQITSVWTKGVTPLTPEQFRYNNEDVIHAPYLAHQGWYDITKAFDGKDNLLCGAATAGNMLHWWFDQNKTEIEAYLSKHPEKQKIIFNNQELFDLKAAIDTKDSQTNSQLFNYFRDKAFPNLSARQLGVMPDLVLDMFINGYYLNVFKTQSTDVNRPYQDKDKRGGIFDAVFTRGDQTTLLTARHDLKNKGLNDISTIIKQELTEGRALALSHTYANVSISHVINLWGADFNAEGNLEAIYVTDSDANASIGMKKYYVGINAHGHVAISAYKIEGENIGAQVLGLFTLSSGKDIWQKLSLEHHHHHH ; measured Enzyme Activity Endpoint Assay (purified): Fc: 381

Lookup result for PRT-686 (protein) MQITSVWTKGVTPLTPEQFTYNNEDVIHAPYIANQGWYDITKTFNGKDNLLCGAATAGNMLHWWFDQNKTEIENYLKKHPEKQKIIFNNQELFDLRKAINTKDSQTNSALFNYFRDKAFPNLSARQLGVMPDLVLDMFINGYYLNVFKTQSTDVNRPYQTKDKRGGIFDHVFTRGDQSTLLTARHDLKNKTLNEISDIIKQELTEGKALALSHTYANVSISHVINLWGADFNAEGNLEAIYVTDSDANASIGMKKYFVGVNSHGKVAISAKKIEDENIGAQVLGLFTLSSGQDIWEQLSLEHHHHHH ; measured Enzyme Activity Endpoint Assay (purified): Fc: 355

Lookup result for PRT-603 (protein) MQITTVWTKGVTPLTPEQFRYNNEDVIHAPYLAHQGWYDITKAFDGKDNLLCGAATAGNMLHWWFDQNKTEIEAYLSKHPEKQKIIFNNQELFDLKAAIDTKDSQTNSQLFNYFRDKAFPNLSARQLGVMPDLVLDMFINGYYLNVFKTQSTDVNRPYQDKDKRGGIFDAVFTRGDQTTLLTARHDLKNGGLNDISTIIKQELQSGRALALSHTYANVSISHVINLWGADFNAEGNLEAIYVTDSDANASIGMKKYFVGINAHGHVAISAKKIEGENIGAQVLGLFTLSSGKDIWQKLSLEHHHHHH ; measured Enzyme Activity Endpoint Assay (purified): Fc: 486

Lookup result for PRT-397 (protein) MVTSVWTKGVTPPADFTQGEDVFHAPYVANQGWYDITKTFNGKDDLLCGAATAGNMLHWWFDQNKEYIEAYLKKHPEKQKIMFGDQELLDVRKAINTKGSQKNSELFNYFRDKAFPNLSARRLGVMPDLVLDMFINGYYLNVTKTQTTDVNRTYQEKDKRGGIFDAVFTRGDQSKLLTSRHDFKEKGLKEISDLIKQELTEGKALGLSHTYANVGINHVINLWGADFDSDGNLKAIYVTDSDSNASIGMKKYFVGVNSAGKVAISAKEIKEDNIGAQVLGLFTLSTGQDIWNQTN ; measured Enzyme Activity Endpoint Assay (purified): Fc: 243

Lookup result for PRT-407 (protein) MVTSVWTKGVTPPADFTQGEDVFHAPYVANQGWYDITKTFNGKDDLLCGAATAGNMLHWWFDQNKEYIEAYLKKHPEKQKIIFGDQELLDVRKAINTKGSQKNSELFNYFRDKAFPNLSARRLGVMPDLVLDMFINGYYLNVTKTQTTDVNRTYQEKDKRGGIFDAVFTRGDQSKLLTSRHDFKEKGLKEISDLIKQELTEGKALGLSHTYANVRINHVINLWGADFDSDGNLKAIYVTDSDSNASIGMKKYFVGVNSAGKVAISAKEIKEDNIGAQVLGLFTLSTGQDIWNQTN ; measured Enzyme Activity Endpoint Assay (purified): Fc: 277

Lookup result for PRT-382 (protein) MVTSVWTKGVTPPTNFTYGEDVLHAPYVANQGWYDITKTFNGKDDLLCGAATAGNMLHWWFDQNKEQIENYLKKHPEKQKINFNGEQMFDVKEAIDTKDSQLDSKLFEYFKEKAFPYLSTKHLGVFPDHVIDMFINGYRLSLTNHGPTPVKRGSKDPRGGIFDAVFTRGDQSKLLTNRHDFKEKTLKEISDLIKQELTEGKALGISHTYANVRINHVINLWGADFDAEGNLEAIYVTDSDSNASIGMKKYVVGVNSNGKVAISAKEIEEDNIGAQVLGLFTLSTGQDIWNQTN ; measured Enzyme Activity Endpoint Assay (purified): Fc: 380
